# Tested on: MARIMO;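 further: after 48 h exposure read by CellTiter-Glo luminescence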
# testSummary: cell viability relative to vehicle control; higher = less cytotoxic
# particulars: 10 µM; SRSF2 genotype: SRSF2 P95H/wt
With a cut-off of 90%, any cell viability strictly below it is called 1.0; any cell viability meeting it or above is called 0.0.

As a guide, the following entries are already answered.
O=[N+]([O-])c1ccc(Sc2cccc[n+]2[O-])c2nonc12 = 1.0
S=c1nc[nH]c2nc[nH]c12 [6-Mercaptopurine (6-MP) Monohydrate] = 0.0
Cc1ccc(Cl)cc1N(CC(=O)Nc1c(F)cccc1F)S(C)(=O)=O = 0.0
CS(=O)(=O)c1ccc([C@@H](O)[C@@H](CO)NC(=O)C(Cl)Cl)cc1 = 0.0

Consider the record given below.
## Input Item C[C@]12CC[C@@H]3c4ccc(O)cc4CC[C@H]3[C@@H]1CC[C@@H]2OC(=O)CCC1CCCC1 [Estradiol Cypionate] : cell viability beneath 90%, strictly?
## Output 1.0
